Assay: Cmax in CD-1 mouse brain at 5 mg/kg, ip by LC-MS/MS analysis
Format: ADME, organism-based
Set-up: dose 5 mg/kg, route intraperitoneal
ENDPOINT_LABEL: Cmax (ng/g)
Number in ng/g, nothing else.

In plain terms, `CCn1cncc1-c1c[nH]c2ccc(I)cc12` has a documented Cmax of 2720

----------
Assay: Tmax in CD-1 mouse at […], ip by LC-MS/MS analysis
Format: ADME, organism-based
Conditions: in vivo
ENDPOINT_LABEL: Tmax (min)
Number in min, nothing else.

In plain terms, `CCn1cncc1-c1c[nH]c2ccc(I)c(F)c12.Cl` has a documented Tmax of 5

Reference for the values: ChEMBL document CHEMBL4393658
